EXPERIMENTAL_SYSTEM: Fuc(a1-2)Gal(b1-4)GlcNAc(b1-3)Gal(b1-4)GlcNAc(b1-3)Gal(b1-4)GlcNAc
PROTOCOL: glycan array binding signal (z-score within array); higher = stronger binding
TEST_CONTEXT: glycan notation: IUPAC condensed, linker removed
This excerpt belongs to a sample that is enriched for the strongest signals.

BINDER | glycan array binding signal (z-score)
RegIIIbeta (Mus musculus), P35230 (protein) MLPPTACSVMSWMLLSCLMLLSQVQGEDSLKNIPSARISCPKGSQAYGSYCYALFQIPQTWFDAELACQKRPGGHLVSVLNSAEASFLSSMVKRTGNSYQYTWIGLHDPTLGAEPNGGGWEWSNNDVMNYFNWERNPSTALDRAFCGSLSRASGFLKWRDMTCEVKLPYVCKFTG | 0.15
Sebin2 (Coprinopsis cinerea), A8PE78 (protein) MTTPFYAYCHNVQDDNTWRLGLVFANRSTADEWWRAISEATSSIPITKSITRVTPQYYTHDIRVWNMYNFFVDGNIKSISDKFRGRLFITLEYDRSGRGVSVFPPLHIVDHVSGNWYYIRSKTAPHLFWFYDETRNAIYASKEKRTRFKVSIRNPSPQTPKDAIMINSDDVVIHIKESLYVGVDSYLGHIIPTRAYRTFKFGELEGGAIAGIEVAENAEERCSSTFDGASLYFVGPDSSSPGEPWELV | -0.116
Gal 7 (Canis lupus) (protein) MAGSSNVPHKTSLPEGIRVGTVMRIRGVVPNKAGRFYVNLLCGEAPGSEAALHFNPRLDESTVVFNTLEQGAWGREERGTGIPFQRGQPFDVLLIATDEGFKAVVGDSEYHHFRYRIPPARVRLLEVGGDLQLESVSVF | 8.28
